Measured values drawn from BindingDB's records for doi:10.1021/jm00031a001 for this set.

TGT: Phospholipase A2 group IB (pancreatic, Sus scrofa)
METHOD_NOTES: In vitro activity against porcine pancreatic phospholipase-A2 (PLA2) and monomerically dispersed substrate
MEASUREMENT_KIND: IC50 (nM)

Check out these entries, answers already filled in.
CCCCCC/C=C/CC(=O)N[C@H](CSc1ccc2ccccc2c1)CC(=O)O :: 23
CCCCCC/C=C/CC(=O)N[C@@H](CC(=O)O)CC(C)C :: 300
CCCCCCCCCCCCCCCC(=O)N[C@@H](CCCC(=O)O)CC(C)C :: 1300

A = CCCCCCCCCC(=O)N[C@@H](CC(=O)O)CC(C)C
B = CCCCCCCCCCCCCCCC(=O)N[C@@H](CC(=O)O)CC(C)C
C = CCCCCC/C=C/CC(=O)N[C@H](CSc1ccccc1)CC(=O)O
Qu. Sort by IC50, descending. In plain terms: list the labels in the order you were asked to.
Ans. A, B, C
